test: Cytotoxicity against mock-infected african green monkey Vero 76 cells after 48 to 96 hrs by MTT assay; type: cell-based; conditions: chlorocebus sabaeus, mock-infected Vero 76 cells
Recorded Metric: CC50

Query (molecule): FC(F)(F)c1ccc2c(c1)nc(CC1=CCCC1)n2C[C@@H]1CCCN2CCCC[C@H]12 ; field requested: CC50
> 100 µM

Entry Nc1ccc(Cc2nc3ccccc3[nH]2)cc1 : reported CC50 = ?
> 100 µM

Which CC50 value belongs to COc1c(C)c2c(c(O)c1C/C=C(\C)CCC(=O)O)C(=O)OC2 ?
20 µM

Would you mind telling me what CC50 value was observed for FC(F)(F)c1ccc2[nH]c(C3CCCCO3)nc2c1 (stereo not drawn) ?
> 100 µM

Which CC50 is reported for this molecule? Clc1ccc2[nH]c(C3CCCCO3)nc2c1 (stereo not drawn)
> 100 µM

Look up CC50: FC(F)(F)c1ccc2c(c1)nc(CC1CCCC1)n2C[C@@H]1CCCN2CCCC[C@H]12
> 100 µM

Dear colleague, I am looking for the recorded CC50 of the following molecule: Clc1ccc(Cc2nc3cc(Cl)c(Cl)cc3[nH]2)cc1
71 µM

Query: CC50; subject: CCC/C=C(\CC)c1nc2ccccc2[nH]1
≥ 100 µM

----------
test: Selectivity index, ratio of CC50 for african green monkey Vero 76 cells to EC50 for Respiratory syncytial virus; type: toxicity, cell-based; settings: read-out: Ratio CC50/EC50
Recorded Metric: selectivity ratio

What measured selectivity ratio goes with Cc1ccc2nc(-c3ccc(F)cc3)n([C@H]3CCCN4CCCC[C@H]34)c2c1 ?
> 1.59

What measured selectivity ratio goes with CCC/C=C(\CC)c1nc2ccccc2[nH]1 ?
> 4.54

Any idea what its selectivity ratio is? The compound is CCCCn1c(Cc2ccc(Cl)c(Cl)c2)nc2cc(C(F)(F)F)ccc21
> 11.1

What value of measured selectivity ratio is listed for Clc1cc2nc(Cc3ccc(Br)cc3)n(C[C@@H]3CCCN4CCCC[C@H]34)c2cc1Cl ?
> 11.1

What value of measured selectivity ratio is listed for NC(=O)c1ncn([C@@H]2O[C@H](CO)[C@@H](O)[C@H]2O)n1 ?
> 14.3

What value of selectivity ratio has been reported for the following compound? FC(F)(F)c1ccc2c(c1)nc(Cc1ccc(Br)cc1)n2C[C@@H]1CCCN2CCCC[C@H]12
> 4

What selectivity ratio value was documented for this compound, Clc1ccc(Cc2nc3cc(Cl)c(Cl)cc3n2C[C@@H]2CCCN3CCCC[C@H]23)cc1Cl ?
> 8.33

// query selectivity ratio value for entry c1ccc(-n2c(C[C@H]3CCCN4CCCC[C@H]34)nc3ccccc32)cc1
> 14.3

Requested field: selectivity ratio. Item: COc1ccc(Cc2nc3cc(Cl)c(Cl)cc3[nH]2)cc1
≥ 20

----------
experiment: Cytotoxicity against mock-infected human MT4 cells after 96 hrs by MTT assay; assay type: cell-based
Recorded Metric: CC50 at 96 h (µM)
Express your answer in µM, writing the number without its unit.

Which CC50 at 96 h reading was recorded for the molecule Clc1ccc(Cc2nc3cc(Cl)c(Cl)cc3n2C[C@@H]2CCCN3CCCC[C@H]23)cc1 ?
17

Fill blank: measured CC50 at 96 h of the molecule COCCn1c(-c2ccc(OC)cc2)nc2cc(C(F)(F)F)ccc21 is ____.
80
